Experimental Details: Viability qHTS for spleen associated tyrosine kinase inhibitor (SYKi) naive MV4-11 cells (AID 1963823); further: nearly all actives have a fitted effect of over 40% in size
Test Settings: MV4-11 AML viability, CellTiter-Glo luminescence, 72 h; series mostly up to 45 µM
Results filed as inconclusive are left out. Active and inactive are the calls of the source. The call rests on the fitted dose curve; in most records, active means well fitted cell-killing curve with a large enough effect; inconclusive means small, poorly fitted or top-dose-only effect, or effect the other way; inactive means no such curve, though single readings can be large or run the other way. Where a SMILES comes first, the peptide text is derived from it. Bridges are numbered along the chain shown (N, C = ends). [ ]: non-standard residue; d: D form. The star is where a group is joined. X1 = CCC(C)C(N)C1=NC(C(=O)*)CS1; dOrn = NCCC[C@@H](N)C(=O)O
The reply should name one outcome from Y for active, N for inactive

Here are 5 molecules together with their reported answers.
# Molecule, Classification
data = [
    ("CC1C2=CC(=O)OC2(O)CC2C1C(O)CC1C(C)(CO)CCCC21C (stereo not given)", "N"),
    ("CS(=O)(=O)c1ccc([C@@H](C[C@H]2CCC(=O)C2)C(=O)Nc2cnccn2)cc1Cl", "Y"),
    ("Cc1cc(C(=O)N2CCN(c3cccc(Cl)c3)CC2)n(-c2ccccc2)n1", "Y"),
    ("CC1OC2OC(=O)C3(C)CC4=C(CO)C5=C(CC(=O)C4(C)C(C1=O)C23)C(C)(C)OC(=O)C5 (stereo not given)", "N"),
    ("Cn1cc(-c2[nH]c3cc(NC(=O)[C@H](N)C4CCCCC4)cc4c3c2C=NNC4=O)cn1", "Y"),
]

-- ask For "O=C1NC(c2cccc([N+](=O)[O-])c2)=CCN1c1ccccc1O" , what call appears in the results of this test?
-- reply N

-- ask Could you do the same for CC(=O)CC(c1ccccc1)c1c(O)c2ccccc2oc1=O (stereo not given) , please?
-- reply N

-- ask Could you do the same for "N#Cc1c(C2CCNCC2)cc(-c2c(O)cccc2OCC2CC2)nc1N" , please?
-- reply Y

-- ask Could you do the same for "C[C@@H]1C(=O)O[C@H]2C[C@]34[C@H]5C[C@@H](C(C)(C)C)[C@]36[C@@H](OC(=O)[C@H]6O)O[C@]4(C(=O)O5)[C@]21O" , please?
-- reply N

-- ask Could you do the same for C=C1[C@@H](OC(C)=O)CC[C@@]2(C)[C@@H](OC(C)=O)[C@H](OC(C)=O)C3=C(C)C[C@H](OC(=O)C(C)CC)[C@@H]([C@@H](OC(C)=O)[C@H]12)C3(C)C (stereo not given in full) , please?
-- reply Y

-- ask Could you do the same for CCn1cc(C(=O)O)c(=O)c2cc(F)c(N3CCNC(C)C3)c(F)c21 (stereo not given) , please?
-- reply N

-- ask Could you do the same for "C#CC[C@H](c1nc2cc(Cl)ccc2c(=O)n1Nc1ccccc1)N(CCCN)C(=O)c1cccc(Cl)c1F" , please?
-- reply Y

-- ask Could you do the same for CCC(C)C(N)C1=NC(C(=O)N[C@@H](CC(C)C)C(=O)N[C@H](CCC(=O)O)C(=O)N[C@H](C(=O)N[C@H]2CCCCNC(=O)[C@H](CC(N)=O)NC(=O)[C@@H](CC(=O)O)NC(=O)[C@H](Cc3cnc[nH]3)NC(=O)[C@@H](Cc3ccccc3)NC(=O)[C@H]([C@@H](C)CC)NC(=O)[C@@H](CCCN)NC2=O)[C@@H](C)CC)CS1 (stereo not given in full) (X1-L[dE]IK[dOrn]I[dF]H[dD]N; lactam 4-C) , please?
-- reply N

-- ask Could you do the same for CCC1C(=O)OCC1Cc1cncn1C (stereo not given) , please?
-- reply N

-- ask Could you do the same for "COc1ccc2c(c1)C[C@H](C(=O)Nc1ccc(-c3cn[nH]c3)cc1OCCN(C)C)CO2" , please?
-- reply Y

-- ask Could you do the same for C=C1C(=O)O[C@@H]2C[C@@H](C)[C@]34C[C@]5(C(=O)O[C@H]6CC(C)=C([C@H](C)CCCO)[C@H](OC(=O)C(C)CC)[C@H]65)[C@@H](C(C)=C3C[C@@H]12)[C@H]4OC(C)=O (stereo not given in full) , please?
-- reply Y

-- ask Could you do the same for COc1cc2c(cc1-c1c(C)noc1C)ncc1[nH]c(=O)n(C(C)c3ccccn3)c12 (stereo not given) , please?
-- reply Y

-- ask Could you do the same for CC(C)c1cc2c(c(O)c1O[C@@H]1O[C@H](CO)[C@@H](O)[C@H](O)[C@H]1O)CC1(O)CCC(O)C(C)(C)C1CC2 (stereo not given in full) , please?
-- reply N

-- ask Could you do the same for "C/C(=C\CO[C@@H]1O[C@H](CO[C@H]2OC[C@](O)(CO)[C@H]2O)[C@@H](O)[C@H](O)[C@H]1O)C(C)(C)O" , please?
-- reply N

-- ask Could you do the same for "CCCCNC(=O)NS(=O)(=O)c1ccc(C)cc1" , please?
-- reply N

-- ask Could you do the same for "CC(=O)NCCCS(=O)(=O)O" , please?
-- reply N

-- ask Could you do the same for "COC(=O)c1cc(Cl)ccc1OC" , please?
-- reply N

-- ask Could you do the same for O=C1NC(Cc2c[nH]c3ccccc23)C(=O)NC1Cc1cnc[nH]1 (stereo not given) , please?
-- reply N
